# assay_summary: inhibitors of DENV2 cytopathic effect, primary screen, cell-based, plate reader, single concentration (AID 651640);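 also: 0% = median of neutral control wells and 100% = median of positive control wells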
# measurement_context: DENV2-infected cells, cytopathic effect rescue, at 9.99 µM
Among all 350,000 compounds or so, about 6,000 (1.7%) were called active. Roughly 5% stayed inconclusive and do not appear here. Rule as the data show it: active = CPE inhibition above about 20% (passing the limit was not always enough); inconclusive = no clear call, values can overlap the other calls; tested in BHK-21 cells. Only a selection was taken, and actives are over-represented in it overall.
Your response should consist of one outcome taken from active, inactive

Query: Status in this test for `CC(C)CC#Cc1ccc([C@H]2[C@H]3CN(C(=O)CN4CCOCC4)CC(=O)N3[C@H]2CO)cc1` ?
Reply: inactive

Query: So what was the verdict on `CCOC(=O)/C=C/c1ccccc1O` in this test?
Reply: inactive

Query: Check the results log: what was the call for `CC(C)NC(=O)NCC[C@H]1CC[C@@H](NS(=O)(=O)c2ccc(Oc3ccccc3)cc2)[C@@H](CO)O1` ?
Reply: inactive

Query: Returns: the outcome recorded for CC=Cc1ccc2n(c1=O)C[C@@H]1[C@@H](CO)[C@H](C(=O)NCCc3ccccc3)N(C(C)=O)[C@H]21 (mixture of isomers) in this assay.
Reply: inactive

Query: Could you please tell me the result logged for COC(=O)[C@H]1C[C@H](OC(=O)NCc2ccccc2)[C@@]2(O)CN(S(=O)(=O)c3ccc(C)cc3)CC2[C@H]1C(=O)OC (some centres undefined) in this assay?
Reply: inactive

Query: Kindly provide the recorded test outcome for the following compound: `Cc1ccc(S(=O)(=O)N2C[C@]3(O)C[C@@H]4C(=O)N(c5ccccc5)C(=O)[C@@H]4C[C@]3(OC(=O)NC3CC3)C2)cc1`
Reply: inactive

Query: Give the logged outcome of this assay for the following compound: `CCOC(=O)NNc1cc(C(F)(F)F)ccn1`
Reply: inactive

Query: Recorded call for `CCOC(=O)/C=C/c1ccc(C(F)(F)F)cc1S(=O)(=O)NC(C)(C)C` ?
Reply: active

Query: Record request — test call for `CCOC(=O)c1cccc(NC(=O)CCOc2ccccc2)c1`
Reply: inactive

====

# assay_summary: inhibitors of DENV2 cytopathic effect, primary screen, cell-based, plate reader, single concentration (AID 651640);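 also: 0% = median of neutral control wells and 100% = median of positive control wells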
# measurement_context: DENV2-infected cells, cytopathic effect rescue, at 9.99 µM, active compounds read high
The whole screen tested about 350,000 compounds, of which about 6,000 (1.7%) were called active. Not shown: some 5% with an inconclusive outcome. The sample as a whole holds a higher share of actives than the screen did.
metric: CPE inhibition (%)
Report the value in % with no unit label.

Query: What does the data say about its CPE inhibition? Entry: `COc1ccc(C#Cc2cnc3c(c2)C(=O)N([C@@H](C)CO)C[C@H](C)[C@@H](CN(C)C(C)=O)O3)cc1`
Reply: 2.83

Query: Given `COc1ccccc1NC(=O)N1C[C@@H]2[C@H](c3ccccc31)[C@H](CO)N2CC1CCOCC1` , state its recorded CPE inhibition.
Reply: 16.7

Query: Given `C[C@H]1CN([C@@H](C)CO)C(=O)c2cc(C#Cc3ccc(F)cc3)cnc2O[C@@H]1CN(C)C(=O)Nc1ccc(F)cc1` , state its recorded CPE inhibition.
Reply: -4.85

Query: Please look up its CPE inhibition: `CCCc1cn(CC[C@@H]2CC[C@@H](NS(=O)(=O)c3ccccc3Cl)[C@@H](CO)O2)nn1`
Reply: -1.78

====

# assay_summary: inhibitors of DENV2 cytopathic effect, primary screen, cell-based, plate reader, single concentration (AID 651640);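 also: 0% = median of neutral control wells and 100% = median of positive control wells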
# measurement_context: DENV2-infected cells, cytopathic effect rescue, at 9.99 µM
Hit rate of the full screen: of about 350,000 compounds, about 6,000 (1.7%) were called active. Inconclusive results (about 5%) are left out. Cut-off read from the data, not from the text of the source: active = CPE inhibition above about 20% (passing the limit was not always enough); inconclusive = no clear call, values can overlap the other calls; tested in BHK-21 cells. The entries come from a sample that favours actives as a whole.
Pick from active, inactive when you respond.

Query: # fetch the recorded call for `O=C(NCc1ccccc1)[C@H]1CCCN1C(=O)[C@@H]1CCCN1C(=O)c1ccc(Cl)cc1Cl` here
Reply: active

Query: Please let me know the test result on file for `C[C@@H]1CN([C@@H](C)CO)C(=O)c2cc(NC(=O)Nc3ccc4c(c3)OCO4)ccc2O[C@@H]1CN(C)C(=O)Nc1ccc2c(c1)OCO2` .
Reply: inactive

Query: Please state the recorded outcome for this compound: `COc1ccccc1-c1ccc2n(c1=O)C[C@H]1[C@H](CO)[C@@H](C(=O)N[C@@H](C)c3ccccc3)[C@@H]2N1C`
Reply: inactive

Query: Record lookup: outcome of this test for `Cc1nccn1-c1ccc(NC(=O)[C@H]2O[C@@H](n3ccc(=O)[nH]c3=O)[C@H](O)[C@@H]2O)cc1` ?
Reply: inactive

Query: Fill in: this test's call for `CC(C)C[C@@H](COCc1ccc(Cl)cc1)N1CCN(C(=O)c2ccc(Cl)cc2Cl)CCC1=O` is ___
Reply: inactive

Query: Any idea what this test logged for `O=C(NS(=O)(=O)c1cccs1)[C@H]1O[C@@H](n2ccc(=O)[nH]c2=O)[C@H](O)[C@@H]1O` ?
Reply: active

Query: Hi, sorry to bother you, what did the test record for `O=C(C1CCCCC1)N1CC(=O)N2[C@H](CO)[C@H](c3ccc(Br)cc3)[C@H]2C1` ?
Reply: inactive

Query: Test call for this compound, please: `Cc1cc(NS(=O)(=O)c2ccc(NC(=S)NC(=O)c3ccc(F)cc3Cl)cc2)no1`
Reply: active

Query: Please share the test call associated with COC(=O)N1Cc2ccnnc2CC1c1ccccc1Br (configuration not stated) .
Reply: inactive

Query: Could you please tell me the result logged for `O=C(NC[C@@H]1[C@H](c2ccccc2)[C@H](CO)N1CC1CCCC1)c1cccnc1` in this assay?
Reply: active

Query: Hello, I am checking results. What call was entered for `C[C@@H]1CN([C@H](C)CO)S(=O)(=O)c2ccc(C#C[C@@H](C)O)cc2O[C@H]1CN(C)C(=O)CC1CC1` ?
Reply: inactive

Query: Hello, I am checking results. What call was entered for `CCOc1ccc(C(=O)Nc2ccc(S(=O)(=O)Nc3cc(C)on3)cc2)cc1` ?
Reply: inactive

Query: Write down the call the test reported for this compound. Item: `CCOc1ncccc1C(=O)NNC(=O)c1cccc(S(=O)(=O)Nc2ccccc2OC)c1`
Reply: active

Query: Which outcome was entered for the compound `O=C(N[C@H](Cc1ccccc1)C(=O)N1CCCN(Cc2cccs2)CC1)[C@H]1O[C@@H](n2ccc(=O)[nH]c2=O)[C@H](O)[C@@H]1O` in this test?
Reply: inactive

Query: # fetch the recorded call for `O=C(NCc1ccccc1)[C@@H]1CCCN1C(=O)[C@H]1CCCN1C(=O)c1cccc(Cl)c1` here
Reply: inactive

Query: recorded result category for `O=S(=O)(NC[C@H]1[C@@H](c2ccccc2)[C@@H](CO)N1CC1CC1)c1ccccc1` in this test
Reply: inactive

Query: Tell me the assay call for `O=C(c1ccc(C(F)(F)F)cc1)N1CCC(=O)N([C@H](COCc2ccccc2)Cc2ccccc2)CC1` please.
Reply: inactive

====

# assay_summary: inhibitors of DENV2 cytopathic effect, primary screen, cell-based, plate reader, single concentration (AID 651640);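 also: 0% = median of neutral control wells and 100% = median of positive control wells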
# measurement_context: DENV2-infected cells, cytopathic effect rescue, at 9.99 µM, active compounds read high
Among all 350,000 compounds or so, about 6,000 (1.7%) were called active. Roughly 5% stayed inconclusive and do not appear here. What follows is part of a selection rich in actives, with near analogues and random picks from the rest.
metric: CPE inhibition (%)
Reply numerically in %, unit not repeated.

Query: // CPE inhibition lookup, key: `O=C1O[C@@H](c2ccccc2)[C@@H](c2ccccc2)N2[C@@H](c3ccccc3OCCO)[C@]3(C(=O)Nc4ccccc43)[C@@H](C(=O)N3CCCCCCC3)[C@H]12`
Reply: 0.314

Query: Looking for the measured CPE inhibition of `O=C(C[C@@H]1C=C[C@H](NC(=O)CCN2CCCCC2)[C@H](CO)O1)NCc1ccc(Cl)c(Cl)c1` , can you help?
Reply: 0.258

Query: GET /values?readout=CPE inhibition&item= `CCCC#Cc1ccc([C@@H]2[C@@H](C#N)N(C(=O)C3CCCC3)[C@@H]2CO)cc1`
Reply: -5.75

Query: Endpoint output: CPE inhibition of `CCNC(=O)C[C@@H]1CC[C@@H]2[C@H](COc3ccc(NC(=O)Nc4cccc(C)c4)cc3C(=O)N2C)O1` . Value?
Reply: -13.2

Query: So what does the record say about CPE inhibition for `COc1ccc2c3c(n(C)c2c1)[C@@H](CO)N(C)CC31CN(CC2CC2)C1` ?
Reply: -0.913

Query: // returns reported CPE inhibition for input `COc1ccccc1C#Cc1ccc([C@@H]2[C@@H](CO)N(C(=O)C3CC3)[C@H]2C#N)cc1`
Reply: 1.77

Query: Entry under review: `C[C@H]1CN([C@@H](C)CO)C(=O)Cc2cc(NC(=O)Nc3ccc(C(F)(F)F)cc3)ccc2O[C@H]1CN(C)Cc1ccc(C(=O)O)cc1` . Reported CPE inhibition?
Reply: 16.5

Query: Recorded CPE inhibition of `C[C@H]1CN([C@@H](C)CO)C(=O)Cc2cc(NC(=O)C3CCCCC3)ccc2O[C@H]1CN(C)C(=O)Nc1ccc(C(F)(F)F)cc1` , please.
Reply: -1.37
